# target_or_test_system: T1, human cathepsin L (human)
# T1 construct: source: Pichia pastoris expression system, as described previously [12,56,57]
# measurement_protocol: enzyme inhibition kinetics (fluorogenic peptide substrate activity assay); inhibitor preincubated with protease 15 min, 37 °C; IC50 from residual velocities, Ki by the Cheng-Prusoff equation; 50 mM sodium acetate pH 5.5, 0.1% polyethylene glycol 1500, 2.5 mM dithiothreitol (cathepsins L, K, V, B, F, C and papain; 50 mM NaCl for cathepsin C)
# condition_context: both partners purified
recorded_metric: Ki (nM)
Write it as a number; the unit nM goes unstated.

Query string: # lookup: Ki of IrThy-Nd, recombinant N-terminal Tg1 domain of IrThy (domain or fragment) SNAASVPTRVANHGASRPLSDCEQRKQREERNTGPLAIHIECNPDGSYKPMQCFGNPDQPRRMCACYDQEYDQIKAPSRQLKSCK
Result string: 179

Data provenance is paper PMC10889554.
